Experiment: Inhibition of Plasmodium falciparum falcipain-2 after 12 hrs by fluorescence spectroscopy-based on-bead assay
Parameters: concentration or dose not given beside the values
Details: concentration not given here
Peptide text beside a SMILES is read from it.
Give met when the value for inhibition is at least 60%. Give not met when it is less.

Some solved entries appear below for comparison.
1. CC[C@H](C)[C@H](NC(=O)[C@H](Cc1ccccc1)NC(=O)/C=C/C(=O)N[C@@H](C)C(=O)NCC(=O)N[C@@H](Cc1ccccc1)C(=O)O)C(=O)N[C@@H](C)C(=O)N[C@H](C(N)=O)C(C)C (HELM PEPTIDE1{[C[C@H](NC(=O)/C=C/C(=O)[*:2])C(=O)NCC(=O)N[C@@H](Cc1ccccc1)C(=O)O].F.I.A.V.[am]}$$$$V2.0) : not met
2. CC(C)C[C@H](NC(=O)[C@H](Cc1ccccc1)NC(=O)[C@H](CCC(N)=O)NC(=O)/C=C/C(=O)NCC(=O)NCC(=O)N[C@@H](Cc1ccccc1)C(=O)O)C(=O)N[C@H](C(N)=O)C(C)C (HELM PEPTIDE1{[O=C(/C=C/C(=O)[*:2])NCC(=O)NCC(=O)N[C@@H](Cc1ccccc1)C(=O)O].Q.F.L.V.[am]}$$$$V2.0) : met
3. CC(=O)NC[C@H](NC(=O)/C=C/C(=O)NCC(=O)NCC(=O)N[C@@H](Cc1ccccc1)C(=O)O)C(=O)N[C@@H](CC(C)C)C(=O)N[C@H](C(=O)N[C@H](C(N)=O)C(C)C)C(C)C (HELM PEPTIDE1{[O=C(/C=C/C(=O)[*:2])NCC(=O)NCC(=O)N[C@@H](Cc1ccccc1)C(=O)O].[O=C([C@H](CN[*:3])N[*:1])[*:2]].L.V.V.[am]}|PEPTIDE2{[ac]}$PEPTIDE1,PEPTIDE2,2:R3-1:R2$$$V2.0) : not met

Asked: inhibition >= 60% for CC(C)C[C@H](NC(=O)[C@H](C)NC(=O)/C=C/C(=O)N[C@@H](C)C(=O)NCC(=O)N[C@@H](Cc1ccccc1)C(=O)O)C(=O)N[C@@H](C)C(=O)N[C@H](C(N)=O)C(C)C (HELM PEPTIDE1{[C[C@H](NC(=O)/C=C/C(=O)[*:2])C(=O)NCC(=O)N[C@@H](Cc1ccccc1)C(=O)O].A.L.A.V.[am]}$$$$V2.0) ?
Given back: met

Asked: inhibition >= 60% for CC(C)C[C@H](NC(=O)[C@H](C)NC(=O)/C=C/C(=O)N[C@@H](C)C(=O)NCC(=O)N[C@@H](Cc1ccccc1)C(=O)O)C(=O)N[C@@H](CC(C)C)C(=O)N[C@H](C(N)=O)C(C)C (HELM PEPTIDE1{[C[C@H](NC(=O)/C=C/C(=O)[*:2])C(=O)NCC(=O)N[C@@H](Cc1ccccc1)C(=O)O].A.L.L.V.[am]}$$$$V2.0) ?
Given back: not met

Asked: inhibition >= 60% for CC(C)C[C@H](NC(=O)[C@@H](NC(=O)[C@H](Cc1ccccc1)NC(=O)/C=C/C(=O)NCC(=O)NCC(=O)N[C@@H](Cc1ccccc1)C(=O)O)C1CCCCC1)C(=O)N[C@H](C(N)=O)C(C)C (HELM PEPTIDE1{[O=C(/C=C/C(=O)[*:2])NCC(=O)NCC(=O)N[C@@H](Cc1ccccc1)C(=O)O].F.[O=C([C@@H](N[*:1])C1CCCCC1)[*:2]].L.V.[am]}$$$$V2.0) ?
Given back: not met

These measurements were taken from ChEMBL document CHEMBL1155459.
